test: yeast display, Sf9 membrane polyspecificity reagent, FACS + sequencing; frameworks hold sequencing errors
measurement.kind: polyreactivity (PSR sort gate)

Answered examples (4):
residue.string	value.measured
QVKLVESGGGLVQAGGSLSLSCAASGRIFSYNAMGWYRQAPGKERELVAVISRSDTSTYYADSVKGRFTISRDNAKNTVYLEMNSLKPEDTAVYYCNADGPTYFRYSGYYYWGQGTQVTVSS	low polyreactivity
QVQLVESGGGLVQAGGSLRLSCAASGFTFDSYAMGWYRQAPGKERELVAAITSGDSTHYADSVKGRFTISRDNAKNTVYLQMNSLKPEDTAVYYCAASGFPYPYDYWGQGTQVTVSS	low polyreactivity
QVQLVESGGGLVQAGGSLRLSCAASGRIFKYYVMGWYRQAPGKESELVAAISSGSGSTYYADSVKGRFTISRDNAKNTVYLQMNSLKPEDTAVYYCNALSSWRRTYGSRYDYWGQGTQVTVSS	high polyreactivity
QVQLVESGGGLVQAGGSLRLSCAASGRIFTWNAMGWYRQAPGKERELVASISRSGTSTYYADSVKGRFTISRDNAKNSVYLQMNSLKAEDTAVYYCAAKRYGYKMYYWGQGTQVTVSS	high polyreactivity

// next entry
Quick one: polyreactivity (PSR sort gate) of QVQLVESGGGLVQAGGSLRLSCAASGSTFPGNAMGWYRQAPGKERELVASISGGGDSTYYADSVKGRFTISRDYAKNTVYLQMNSLKPEDTAVYYCAADYRQEPGYTGYYYWGQGTQVTVSS ?
low polyreactivity

----------
experiment: yeast display, Sf9 membrane polyspecificity reagent, FACS + sequencing; frameworks hold sequencing errors
measurement.kind: polyreactivity (PSR sort gate)

residue.string	polyreactivity (PSR sort gate)
QVQLVESGGGLVQAGGSLRLICAASGYTFFFYAMGWYRQAPGKEREFVAAITWRGDSTYYADSVKGRYTISRDNAKNTVYLQMNSLKPEDTAVYYCAADPGFTWSRRMDYWGHGTQVTVSS	low polyreactivity
QVQLVESGGGLVQAGGSLRLSCAASGRSFYFNAMGWYRQAPGKEWELVAVINSSGSTDYADSVKGRFTISRDNAKNTVYLQMNSLKPEDTAVYYCAAEVTPSGYGYWGQGTQVTVSS	low polyreactivity
QVQLVESGVGLVQAGGSLRLSCAASGYTFQINAMGWYRQAPGKERELVAAITSGGRTYYADSVKGRFTISRDNAKNTVYLQMNSLKAEDTAVYYCNKVPRRGVDYWGQGTQVTVSW	low polyreactivity
QVQLVESGGGLVQAGGRLRISCAASGRTFGHYAMGWYRQAPGKQRELVAAINRSGGITYYADSVRGRFTISRDNAKNTVYLQMNSLKPEDPAVDYCAAASPGRYDYWGQGTQETVSS	high polyreactivity
QVQLVESGGGIVQAGGSLRVSCAASGSIFLDNAMGWYRQAPGKERELVADISYSGGSTYYADSVKGRFTISRDNAKNTVYLQMNSLKPEDTAVYYCAAGVQLTVPPLRSSVTEYDYWGQGTQVTVSS	low polyreactivity

Consider the sequence QVQLVESGGGVVQAGGSLRLSCAASGFIFPLYTMGWSRQAPGKERELVAAITGSGGSTYYADSVKGRFTISRDNAKNTVYLQMNSLKPEDTAVYYCAKDYTYGMDWGQGTQVTVSS and give its measured polyreactivity (PSR sort gate).
low polyreactivity

# get_value(readout='polyreactivity (PSR sort gate)', item= QVQLVESGGGLVQAGGSLRLSCAASGSIFRFNAMGWYRQAPGKEREFVAAISSGGRTYYADSVKGRFTISRDNAKNTVYGQRNSLKPDDPAVYYCAALWHRRGSWFRQTGSGYDYWGQGTQVTVSS )
high polyreactivity

Looking for the measured polyreactivity (PSR sort gate) of QVQLVESGGGLVQAGASLRLSCAASGSIFVRNAMGWYRQAPGKERELVAAISKRGTSTYFADSVKGRFTISRDNAKNTVYLQMNSLKPEDTAVYYCNAVLSNSRSYLIRLDYWGQGTQVTVSS , can you help?
high polyreactivity

Reported polyreactivity (PSR sort gate) for QVQLVETGRGLVQAGGSLRLSCAASGSTFGSYAMGWYRPAPGKEREFVATISRSGGRTYYAASVKGRFTISRDNAKNTVYFQMNSLKPEDTAVYYCATDRRYWIGYDYWGQGTQVTVSS : what is it?
high polyreactivity

// lookup polyreactivity (PSR sort gate) for QVQLVESGGGLVQAGGSLRLSCAASGSIFSRNAMGWYRQAPGKEREFVAAISWSGGRTYYADSVKGRFTISRDNAKNTVYLQMNSLKPEDTAVYYCSKGYSYHWYHVTFYSWGQGTQVTVSS
high polyreactivity

Any idea what polyreactivity (PSR sort gate) was measured for QVQLVESGGGLVQAGGSLRLSCAASGSTFYYNVMGWYRQAPGKEREFVAAITQRGGSTYYADSVKGRFTISRDNAKNTVYLQMNSLKPEDTAVYYCAARTRYDFDWGQGTQVTVSS ?
high polyreactivity

Given QVQLVESGGGLFQAGGSLRLSCAASGFTFGYYAMGWYRQAPGKERELVASISITAGSTYYADSVKGRFTISRDNAKNTVYLQMNSLKPEDTAVYYCAAKRRTRQSYYTEYYWGQGTQVTVSS , state its recorded polyreactivity (PSR sort gate).
high polyreactivity

Look at this sequence and give its reported polyreactivity (PSR sort gate). QVQLVESGGGLVQAGRSLRLSCAASGSIFPGNAMGWYRQAPGKERELVASINWSGGSTYYADSVKGRFTISRDNAKNTVYLQMNSLKPEDTAVYYCNADPGYYDYDYWGQVTQVTVSS
low polyreactivity

----------
assay: yeast display, Sf9 membrane polyspecificity reagent, FACS + sequencing; frameworks hold sequencing errors
measurement.kind: polyreactivity (PSR sort gate)

residue.string	measurement.kind	value.measured
QVQLVESGGGLVQAGGSLRLSCAASGRTFYSYAMGWYRQAPGKEREFVAAISVRGVITYYADSVKGRFTISRDNAKNTVYLQMNSLKPEDTAVYDCAADWSGYYTYDYWGQGTQVTVSS	polyreactivity (PSR sort gate)	low polyreactivity
QVQLVESGGGLVHAGGSLRLSCAASGLTFVDNAMGWYRQAPGKERELVAAITKRGGRTYYADSVKGRFTISRDNAKNTVYSQMNSLKPEDTAVYYCAREAGNDSSRRLDYWGQGTQVTVSS	polyreactivity (PSR sort gate)	low polyreactivity
QVHLVESGGGLVQAGGSLRLSCAASGSIFYSNAMGWYRQAPGKERELVAAITRGGSTHYADSVKGRFTISRDNAKNTVYLQMNSLKPEDTAVYYCNKDLNFAKYISSILYDYWGQGTQVSVSS	polyreactivity (PSR sort gate)	low polyreactivity

----------
experiment: yeast display, Sf9 membrane polyspecificity reagent, FACS + sequencing; frameworks hold sequencing errors
measurement.kind: polyreactivity (PSR sort gate)

residue.string	polyreactivity (PSR sort gate)
QVQLVESGGGLVQAGGSLRISCAASGLIFADYTMGWYRQAPGKERDLVAVITDGDSTYYADSVKGRFTISRDNAKNTVYLQMNSLKPEDTAVYYCAAELDGSNYTLDYWGQGTQVTVST	low polyreactivity
QVQLVESGGGLVQAGGSLRLSCAASGSTFRINAMGWYRQAPGKERELVAAITRGGSTNYADSVKGRFTISRDNAKNTVYLQMNSLKPEDTAVYYCAAGLYSWSGYASYNSAYGYWGQGTQVTVSS	low polyreactivity
QVQLVESGGGLVQAGGSLRLSCAASGLTFVYNTMGWYSQAPGKERELVAAISSSGGTTYYADSVKGRFTISRDTAKNTVYLQMNSLKPEDTAVYYCAARPSGGYESTRTRDYWGQGTHVTVSS	low polyreactivity
QVQLVESGGGLVQAGGSLRLSCAASGRIFSQYAMGWYRQAPGKARELVAAITKSGGSTYYADSVKGRFTISRDKAKNTVYLQMNSRKPEETAVYYCAKLRSSRDYDYWGQGTQVTVSS	high polyreactivity
QVQHVESGGGLVQAGGSLRLSCAASGRIFALYAMGWYRQAPGKERELVAAITSGSTYYADSVKGRFTISRDNAKNTVYLQMNSLKPEDTAVYYCAADLSYWRGGHSRNYWGQGTQVTVSS	low polyreactivity
QVQLVESGVGFVQAGASLRLSSAASGSIFRINAMGWYRQAPGKVRELVAAITRSGGSTFYADSVKGRFTMSRDYAKNTVYFQMHSLTPEDTAVYFCAAVWYYSTVPARYEYWGQGTQVTVSS	low polyreactivity
QVQLVESGGGLVQAGGSLRISCAASGITFTSYAMGWYRQAPGKERELVAAISSSGVRTYYADSVKGRFTISRDNAKNTVYLQLNSLKPEDTAVYYCATRRRVLDGYDYGGQGTQVTVSS	high polyreactivity
QVQLVESGGGLVQAGGSLRLSCAASGRTFNYNAMGWYRQAPGKERELVAAINYNGGSTYYADSVKGRFTISRDNAKNTVYVQMNSLKPEDTAVYYCAADYNEYDWGQGTQVTVSS	low polyreactivity

Would you kindly share the measured polyreactivity (PSR sort gate) for QVQLVESGGGLVQAGGSLRLSCAASGRTFYSYAMGGYRQAPGKERELVARITWSGGTYYADSVKGRFTISRDNAKNTVYLQMNSLKPEDTAVYYCAAKYWKWYHYGFGYWGQGTQVTVSS ?
high polyreactivity

Which polyreactivity (PSR sort gate) is reported for this sequence? QVQLVESVGGLVQAGGSLRLSCAASGLIFASYAMGWYRQAPGKERELVAAISWSGGSTYYADSVKGRFTISRDYAKITVYLQMNSLKPEDTAVYYCAAIRYAYGSLDYWGQGTQVTVSS
high polyreactivity

Would you kindly share the measured polyreactivity (PSR sort gate) for QVQHVESGGGLVQAGGSLRLSCAASGSTFDDNTMGWYRQATGKERELVAAITRSGGSTYYADSVKGRFTISRDNAKNTVYLQMNSLKPEDTAVYYCATYPYSPYYYVYVEPYDYWGQGTQVTVSS ?
low polyreactivity
